Value source: patent US20240317683A1

Entries and their measured 5-HT2A % Act @ Max Dose follow.
- assayTarget: 5-HT2A (Homo sapiens (Human))
- methodNotes: FLIPR Ca2+ flux agonist assay, 5-HT2A
- Format: cell-based
- conditionSet: HEK293
Structures can show the parent of a compound that is named as a salt.

molecule: CCN(C)CCc1c[nH]c2ccccc12 [Compound 2, methylethyltryptamine]
5-HT2A % Act @ Max Dose / %: 36.2
//
molecule: CCN(C)CCc1c[nH]c2ccc(F)cc12 [Compound 4, hydrochloride]
5-HT2A % Act @ Max Dose / %: 87.6
//
molecule: COc1ccc2[nH]cc(CCN(C)C)c2c1 [Compound 5-MeO-DMT, 5-methoxy-N,N-dimethyltryptamine, reference compound]
5-HT2A % Act @ Max Dose / %: 106
//
molecule: CCCN(CC)CCc1c[nH]c2ccc(F)cc12 [Compound 3, hydrochloride]
5-HT2A % Act @ Max Dose / %: 104.1
//
molecule: CCN(C)CCc1c[nH]c2cccc(O)c12 [Compound 6]
5-HT2A % Act @ Max Dose / %: 103.0
//
molecule: CN(C)CCc1c[nH]c2ccccc12 [DMT, N,N-dimethyltryptamine, reference compound]
5-HT2A % Act @ Max Dose / %: 93.4

###

- methodNotes: Pharmacokinetics in mice, plasma
- Type: in vivo, C57BL/6 mice
- conditionSet: male, C57BL/6; mouse plasma, IV, 1 mg/kg

compound: CN(C)CCc1c[nH]c2cccc(O)c12 [Psilocin, psilocin, reference compound]
unitOfMeasure: ng·h/mL
AUC(0-t): 79.9

###

- assayTarget: human 5-HT2C receptor (Homo sapiens (Human))
- Sequence (P28335 33-458 limits assumed): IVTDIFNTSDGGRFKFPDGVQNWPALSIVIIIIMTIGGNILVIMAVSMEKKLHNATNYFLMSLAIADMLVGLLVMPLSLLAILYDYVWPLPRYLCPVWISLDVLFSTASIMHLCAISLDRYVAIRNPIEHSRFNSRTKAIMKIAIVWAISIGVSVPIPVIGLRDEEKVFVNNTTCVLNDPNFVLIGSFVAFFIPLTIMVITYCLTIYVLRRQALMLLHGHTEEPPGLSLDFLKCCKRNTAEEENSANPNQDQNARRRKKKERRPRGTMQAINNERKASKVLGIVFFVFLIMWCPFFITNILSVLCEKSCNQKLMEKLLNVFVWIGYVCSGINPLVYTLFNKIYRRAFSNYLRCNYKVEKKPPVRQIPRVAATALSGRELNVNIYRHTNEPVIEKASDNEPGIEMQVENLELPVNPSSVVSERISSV
- methodNotes: cell-based
- conditionSet: Ca2+ flux
pEC50: −log10 of the molar value. Where a name gives a salt, the structure may show the parent alone.
We begin with a simple list: items and their reported pEC50.
reportedMetric: pEC50

compound: CCN(C)CCc1c[nH]c2ccc(F)cc12 [Compound 4, hydrochloride]
assayTarget: human 5-HT2C receptor (Homo sapiens (Human))
readoutValue: 8.02
--
compound: CCCN(CC)CCc1c[nH]c2ccccc12
assayTarget: human 5-HT2C receptor (Homo sapiens (Human))
readoutValue: 7.48

###

- methodNotes: Stability in mouse brain homogenate
- Type: in vitro ADME, CD-1 mice
- conditionSet: male, CD-1; mouse brain homogenate, 1 μM, 37° C.
Counter-ions that a name gives are not always drawn.
# half-life at 1 μM annotations
reportedMetric: half-life at 1 μM (min)

compound: CN(C)CCc1c[nH]c2cccc(O)c12 [Psilocin, psilocin, reference compound]
op: >
readoutValue: 289

compound: CCN(C)CCc1c[nH]c2cccc(O)c12
op: =
readoutValue: 45.8

compound: COc1ccc2[nH]cc(CCN(C)C)c2c1 [Compound 5-MeO-DMT, 5-methoxy-N,N-dimethyltryptamine, reference compound]
op: >
readoutValue: 289

compound: CCCN(CC)CCc1c[nH]c2ccc(F)cc12 [Compound 3, hydrochloride]
op: >
readoutValue: 289

compound: CN(C)CCc1c[nH]c2ccccc12 [DMT, N,N-dimethyltryptamine, reference compound]
op: =
readoutValue: 6.4

compound: CN(C)CCc1c[nH]c2ccc(F)cc12 [Compound 5, hydrochloride]
op: =
readoutValue: 3.1

compound: CCN(C)CCc1c[nH]c2ccccc12
op: =
readoutValue: 123

compound: CCCN(CC)CCc1c[nH]c2ccccc12
op: >
readoutValue: 289

compound: CCN(C)CCc1c[nH]c2ccc(F)cc12 [Compound 4, hydrochloride]
op: =
readoutValue: 54.3

###

- assayTarget: serotonin transporter (SERT) (Homo sapiens (Human), UniProt P31645)
- methodNotes: SERT fluorescent substrate uptake inhibition in transfected HEK293 cells
- Type: cell-based
- conditionSet: HEK293 cells expressing SERT

compound: COc1ccc2[nH]cc(CCN(C)C)c2c1 [Compound 5-MeO-DMT, 5-methoxy-N,N-dimethyltryptamine, reference compound]
SERT % Inhibition @ Max Dose: 68.07%
--
compound: CN(C)CCc1c[nH]c2ccccc12 [DMT, N,N-dimethyltryptamine, reference compound]
SERT % Inhibition @ Max Dose: 67.92%
--
compound: CN(C)CCc1c[nH]c2cccc(O)c12 [Psilocin, psilocin, reference compound]
SERT % Inhibition @ Max Dose: 88.15%
--
compound: CCN(C)CCc1c[nH]c2ccccc12
SERT % Inhibition @ Max Dose: 62.06%

###

- methodNotes: Stability in rat brain homogenate
- Assay type: in vitro ADME, Sprague Dawley rats
- conditionSet: rat brain homogenate, 1 μM, 37° C.
Structures can show the parent of a compound that is named as a salt.
Readings of % Compound Remaining (after 120 min) for the listed compounds

compound: CN(C)CCc1c[nH]c2ccc(F)cc12 [Compound 5, hydrochloride]
% Compound Remaining (after 120 min) (%): 0.0
//
compound: CCN(C)CCc1c[nH]c2ccccc12
% Compound Remaining (after 120 min) (%): 76.5
//
compound: CCCN(CC)CCc1c[nH]c2ccccc12
% Compound Remaining (after 120 min) (%): 86.9
//
compound: CN(C)CCc1c[nH]c2cccc(O)c12 [Psilocin, psilocin, reference compound]
% Compound Remaining (after 120 min) (%): 46.1
//
compound: CCCN(CC)CCc1c[nH]c2ccc(F)cc12 [Compound 3, hydrochloride]
% Compound Remaining (after 120 min) (%): 103.3
//
compound: CCN(C)CCc1c[nH]c2ccc(F)cc12 [Compound 4, hydrochloride]
% Compound Remaining (after 120 min) (%): 62.0
//
compound: COc1ccc2[nH]cc(CCN(C)C)c2c1 [Compound 5-MeO-DMT, 5-methoxy-N,N-dimethyltryptamine, reference compound]
% Compound Remaining (after 120 min) (%): 0.3
//
compound: CCN(C)CCc1c[nH]c2cccc(O)c12
% Compound Remaining (after 120 min) (%): 20.9
//
compound: CN(C)CCc1c[nH]c2ccccc12 [DMT, N,N-dimethyltryptamine, reference compound]
% Compound Remaining (after 120 min) (%): 0.0

###

AUC(0-t): recorded values
- methodNotes: Pharmacokinetics in mice, plasma
- Format: in vivo, C57BL/6 mice
- conditionSet: male, C57BL/6; mouse plasma, oral, 10 mg/kg
Counter-ions that a name gives are not always drawn.

molecule: CCN(C)CCc1c[nH]c2ccccc12
AUC(0-t): 238 ng·h/mL
--
molecule: CCN(C)CCc1c[nH]c2ccc(F)cc12 [Compound 4, hydrochloride]
AUC(0-t): 623 ng·h/mL
--
molecule: CCCN(CC)CCc1c[nH]c2ccccc12
AUC(0-t): 22.1 ng·h/mL

###

- assayTarget: CYP3A4 (Homo sapiens (Human), UniProt P08684)
- Sequence (P08684 whole entry, looked up): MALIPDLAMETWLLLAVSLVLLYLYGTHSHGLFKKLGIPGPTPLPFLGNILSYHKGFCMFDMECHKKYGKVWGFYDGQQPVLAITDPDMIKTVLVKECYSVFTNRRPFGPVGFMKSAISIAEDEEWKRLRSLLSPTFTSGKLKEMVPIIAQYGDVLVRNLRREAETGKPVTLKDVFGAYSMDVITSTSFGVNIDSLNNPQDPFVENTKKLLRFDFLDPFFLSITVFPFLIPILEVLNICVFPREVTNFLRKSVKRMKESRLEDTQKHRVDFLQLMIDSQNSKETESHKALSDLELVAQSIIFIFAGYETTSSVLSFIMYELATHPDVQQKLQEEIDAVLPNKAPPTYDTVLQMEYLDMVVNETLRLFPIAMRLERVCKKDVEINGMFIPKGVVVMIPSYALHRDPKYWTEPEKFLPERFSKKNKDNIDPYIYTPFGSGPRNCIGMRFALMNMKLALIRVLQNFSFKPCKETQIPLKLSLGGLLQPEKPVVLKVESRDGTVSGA
- methodNotes: CYP inhibition in human liver microsomes, CYP3A4
- Assay type: in vitro ADME
- conditionSet: both sexes, human, pooled human liver microsomes, pH 7.4, probe midazolam (2 μM); HLM, 10 μM, midazolam substrate; read-out: CYP 3A4 % Inhibition at 10 μM
reportedMetric: inhibition at 10 min, 10 µM (%)

smilesRecord: CCN(C)CCc1c[nH]c2ccccc12
reportedMetric: inhibition at 10 min, 10 µM
readoutValue: 0
--
smilesRecord: CCCN(CC)CCc1c[nH]c2ccccc12
reportedMetric: inhibition at 10 min, 10 µM
readoutValue: 2

###

- methodNotes: Pharmacokinetics in rats, brain
- Assay type: in vivo, Sprague Dawley rats
- conditionSet: male, Sprague Dawley; rat brain, SC, 1 mg/kg
Where a name gives a salt, the structure may show the parent alone.

compound: CCN(C)CCc1c[nH]c2ccc(F)cc12 [Compound 4, hydrochloride]
unitOfMeasure: ng/g
Cmax: 188

###

- methodNotes: Pharmacokinetics in mice, plasma
- Format: in vivo, C57BL/6 mice
- conditionSet: male, C57BL/6; mouse plasma, IV, 1 mg/kg; read-out: Cmax (C0 back-extrapolated to t = 0)
reportedMetric: Cmax (ng/mL)

molecule: CN(C)CCc1c[nH]c2cccc(O)c12 [Psilocin, psilocin, reference compound]
reportedMetric: Cmax
readoutValue: 195

###

- System: monoamine oxidase A and B (MAO-A and MAO-B)
- methodNotes: Stability in the presence of monoamine oxidases (human liver mitochondria)
- Format: in vitro ADME
- conditionSet: human liver mitochondria preparation
Where a name gives a salt, the structure may show the parent alone.
reportedMetric: MAO stability (in words)

compound: CN(C)CCc1c[nH]c2cccc(O)c12 [Psilocin, psilocin, reference compound]
readoutValue: highly stable

compound: CCN(C)CCc1c[nH]c2cccc(O)c12
readoutValue: highly stable

compound: CCN(C)CCc1c[nH]c2ccccc12
readoutValue: intermediate stability

compound: CCCN(CC)CCc1c[nH]c2ccc(F)cc12 [Compound 3, hydrochloride]
readoutValue: highly stable

compound: CCCN(CC)CCc1c[nH]c2ccccc12
readoutValue: highly stable

compound: CCN(C)CCc1c[nH]c2ccc(F)cc12 [Compound 4, hydrochloride]
readoutValue: intermediate stability

compound: COc1ccc2[nH]cc(CCN(C)C)c2c1 [Compound 5-MeO-DMT, 5-methoxy-N,N-dimethyltryptamine, reference compound]
readoutValue: highly metabolized

compound: CN(C)CCc1c[nH]c2ccc(F)cc12 [Compound 5, hydrochloride]
readoutValue: highly metabolized

compound: CN(C)CCc1c[nH]c2ccccc12 [DMT, N,N-dimethyltryptamine, reference compound]
readoutValue: highly metabolized
